Endpoint summary: IC50, system: Aldo-keto reductase family 1 member B1 (Rattus norvegicus, UniProt P07943), multiple sources combined.
attribute.measured: IC50 (nM)

Study these solved cases before continuing.
O=C1NC(=O)C2(CC(CO)Oc3ccc(F)cc32)N1 (stereo not shown) ... 4000
Cc1sc2c(c1C)c(=O)n(Cc1ccc(Cl)cc1Cl)c(=O)n2CC(=O)O ... 20
COc1cc(C=CC(=O)N2CCN(CCNC(=O)[C@@H]3C[C@]4(NC(=O)NC4=O)c4cc(F)ccc4O3)CC2)cc(OC)c1OC ... 150

[I] O=C(O)Cn1c(=O)n(Cc2ccc(Br)cc2F)c(=O)c2cc(-c3ccccc3)sc21
[II] O=C(O)Cn1nnnc1-c1ccc(C(=O)N2CCCCC2)cc1
Looking at I and II , which one comes out lower in IC50 terms? Bench note: the answer is the label of the chosen record.
I
(I: 34 nM, II: 54 nM)

###

Endpoint summary: IC50, system: Aldo-keto reductase family 1 member B1 (Rattus norvegicus, UniProt P07943), multiple sources combined.
attribute.measured: IC50 (nM)

Study these solved cases before continuing.
CC(C(=O)O)C1Cc2c(cc3c(c2O)CN(C(CCC(=O)O)C(=O)O)C3=O)O1 (centres unmarked) ... 11900
COc1ccc(-c2nnnn2CC(=O)O)cc1OC ... 63
Nc1ccc(-c2nnnn2CC(=O)O)cc1 ... 41
O=C(O)Cn1nnnc1-c1ccc2ccccc2c1 ... 50
CC1Sc2ccccc2N(CC(=O)O)C1=S (centres unmarked) ... 42
COC(=O)N1C(=O)NC2(CC(C(N)=O)Oc3ccc(F)cc32)C1=O (single isomer, unassigned) ... 45

[I] O=C(O)Cn1c(=O)n(Cc2ccc(Cl)cc2Cl)c(=O)c2c3c(sc21)CCCC3
[II] O=C(O)Cc1nn(C/C=C/c2c(F)ccc(Br)c2F)c(=O)c2ccccc12
Looking at I and II , which one comes out lower in IC50 terms? Bench note: the answer is the label of the chosen record.
II
(II: 8.2 nM, I: 42 nM)
